experiment: Selectivity index, ratio of CC50 for African green monkey Vero cells to IC50 for chloroquine-sensitive Plasmodium falciparum 3D7 infected in human erythrocytes; format: toxicity, cell-based; settings: read-out: Ratio CC50/IC50
MEASURE NAME: selectivity ratio
Answer with a number only.

Known selectivity ratio results, listed for orientation:
>  <MOL>
O=C1/C(=N\Nc2ccc(F)cc2)c2ccccc2N1Cc1cn(O[C@@H]2O[C@H](CO)[C@H](O)[C@H](O)[C@H]2O)nn1

>  <NUMBER>
13.9

$$$$
>  <MOL>
CC(=O)C[C@H]1O[C@@H](On2cc(CN3C(=O)/C(=N\Nc4ccc(C#N)cc4)c4ccccc43)nn2)[C@H](OC(C)=O)[C@@H](OC(C)=O)[C@@H]1OC(C)=O

>  <NUMBER>
22.6

$$$$
>  <MOL>
COc1ccc(N/N=C2\C(=O)N(Cc3cn(C[C@H]4O[C@@H]5OC(C)(C)O[C@@H]5[C@H]5OC(C)(C)O[C@H]54)nn3)c3ccccc32)cc1

>  <NUMBER>
64.2

$$$$
>  <MOL>
CC1(C)O[C@H]2O[C@H](Cn3cc(CN4C(=O)/C(=N\Nc5ccccc5)c5ccccc54)nn3)[C@H](O)[C@H]2O1

>  <NUMBER>
17.6

$$$$
>  <MOL>
CC1(C)O[C@H]2[C@@H](O1)[C@@H](Cn1cc(CN3C(=O)/C(=N\Nc4ccc(Br)cc4)c4ccccc43)nn1)O[C@@H]1OC(C)(C)O[C@@H]12

>  <NUMBER>
60.7

$$$$

Sure, the documented selectivity ratio for O=C1/C(=N\Nc2ccc(Br)cc2)c2ccccc2N1Cc1cn(O[C@@H]2O[C@H](CO)[C@H](O)[C@H](O)[C@H]2O)nn1 is 25.8

---

assay: Selectivity index, ratio of CC50 for African green monkey Vero cells to IC50 for chloroquine-resistant Plasmodium falciparum K1 infected in human erythrocytes; format: toxicity, cell-based; conditions: read-out: Ratio CC50/IC50
Recorded selectivity ratio, one value per entry.
Answer with a number only.

>  <MOL>
CC1(C)O[C@H]2O[C@H](Cn3cc(CN4C(=O)/C(=N\Nc5ccccc5)c5ccccc54)nn3)[C@H](O)[C@H]2O1

>  <selectivity ratio>
17.6

$$$$
>  <MOL>
CC(=O)C[C@H]1O[C@@H](On2cc(CN3C(=O)/C(=N\Nc4ccc(F)cc4)c4ccccc43)nn2)[C@H](OC(C)=O)[C@@H](OC(C)=O)[C@@H]1OC(C)=O

>  <selectivity ratio>
18.1

$$$$

Proceed to the following item.
Sure, the documented selectivity ratio for O=C1/C(=N\Nc2ccc(F)cc2)c2ccccc2N1Cc1cn(O[C@@H]2O[C@H](CO)[C@H](O)[C@H](O)[C@H]2O)nn1 is 28.5

---

Recorded CC50 at 72 h, one value per entry.
test: Cytotoxicity against African green monkey Vero cells after 3 days by resazurin dye based fluorescence assay; type: cell-based; conditions: chlorocebus sabaeus
The answer is to be given in µM; state only the numeric part.

Known CC50 at 72 h results, listed for orientation:
>  <MOL>
COc1ccc(N/N=C2\C(=O)N(Cc3cn(C[C@H]4O[C@@H]5OC(C)(C)O[C@@H]5[C@H]4O)nn3)c3ccccc32)cc1

>  <UNIT OF MEASUREMENT>
µM

>  <CC50 at 72 h>
74.5

$$$$
>  <MOL>
CC1(C)O[C@H]2[C@@H](O1)[C@@H](Cn1cc(CN3C(=O)/C(=N\Nc4ccccc4)c4ccccc43)nn1)O[C@@H]1OC(C)(C)O[C@@H]12

>  <UNIT OF MEASUREMENT>
µM

>  <CC50 at 72 h>
105

$$$$
>  <MOL>
CC1(C)O[C@H]2[C@@H](O1)[C@@H](Cn1cc(CN3C(=O)/C(=N\Nc4cccc(Cl)c4)c4ccccc43)nn1)O[C@@H]1OC(C)(C)O[C@@H]12

>  <UNIT OF MEASUREMENT>
µM

>  <CC50 at 72 h>
117

$$$$

Sure, the documented CC50 at 72 h for CC1(C)O[C@H]2[C@@H](O1)[C@@H](Cn1cc(CN3C(=O)/C(=N\Nc4ccc(Br)cc4)c4ccccc43)nn1)O[C@@H]1OC(C)(C)O[C@@H]12 is 119

Sure, the documented CC50 at 72 h for COc1ccc(N/N=C2\C(=O)N(Cc3cn(O[C@@H]4O[C@H](CO)[C@H](O)[C@H](O)[C@H]4O)nn3)c3ccccc32)cc1 is 76.2

Sure, the documented CC50 at 72 h for O=C1/C(=N\Nc2ccc(F)cc2)c2ccccc2N1Cc1cn(O[C@@H]2O[C@H](CO)[C@H](O)[C@H](O)[C@H]2O)nn1 is 92.1

Sure, the documented CC50 at 72 h for CC(=O)C[C@H]1O[C@@H](On2cc(CN3C(=O)/C(=N\Nc4ccc(F)cc4)c4ccccc43)nn2)[C@H](OC(C)=O)[C@@H](OC(C)=O)[C@@H]1OC(C)=O is 68.7

Sure, the documented CC50 at 72 h for O=C1/C(=N\Nc2ccccc2)c2ccccc2N1Cc1cn(O[C@@H]2O[C@H](CO)[C@H](O)[C@H](O)[C@H]2O)nn1 is 83.4

Sure, the documented CC50 at 72 h for CC1(C)O[C@H]2O[C@H](Cn3cc(CN4C(=O)/C(=N\Nc5cccc(Cl)c5)c5ccccc54)nn3)[C@H](O)[C@H]2O1 is 70

Sure, the documented CC50 at 72 h for CC(=O)C[C@H]1O[C@@H](On2cc(CN3C(=O)/C(=N\Nc4cccc(Cl)c4)c4ccccc43)nn2)[C@H](OC(C)=O)[C@@H](OC(C)=O)[C@@H]1OC(C)=O is 117

Sure, the documented CC50 at 72 h for CC1(C)O[C@H]2[C@@H](O1)[C@@H](Cn1cc(CN3C(=O)/C(=N\Nc4ccc(C#N)cc4)c4ccccc43)nn1)O[C@@H]1OC(C)(C)O[C@@H]12 is 126

Sure, the documented CC50 at 72 h for CC(=O)C[C@H]1O[C@@H](On2cc(CN3C(=O)/C(=N\Nc4cccc(Cl)c4)c4ccccc43)nn2)[C@H](OC(C)=O)[C@@H](OC(C)=O)[C@H]1OC(C)=O is 87.9

Sure, the documented CC50 at 72 h for O=C1/C(=N\Nc2ccccc2)c2ccccc2N1Cc1cn(O[C@@H]2O[C@H](CO)[C@@H](O)[C@H](O)[C@H]2O)nn1 is 88.5

Sure, the documented CC50 at 72 h for O=C1/C(=N\Nc2ccc(Br)cc2)c2ccccc2N1Cc1cn(O[C@@H]2O[C@H](CO)[C@H](O)[C@H](O)[C@H]2O)nn1 is 91.5

---

Recorded selectivity ratio, one value per entry.
experiment: Selectivity index, ratio of CC50 for African green monkey Vero cells to IC50 for chloroquine-sensitive Plasmodium falciparum 3D7 infected in human erythrocytes; format: toxicity, cell-based; conditions: read-out: Ratio CC50/IC50

Known selectivity ratio results, listed for orientation:
>  <MOL>
CC1(C)O[C@H]2O[C@H](Cn3cc(CN4C(=O)/C(=N\Nc5cccc(Cl)c5)c5ccccc54)nn3)[C@H](O)[C@H]2O1

>  <selectivity ratio>
15.7

$$$$
>  <MOL>
CC(=O)C[C@H]1O[C@@H](On2cc(CN3C(=O)/C(=N\Nc4ccc(Br)cc4)c4ccccc43)nn2)[C@H](OC(C)=O)[C@@H](OC(C)=O)[C@@H]1OC(C)=O

>  <selectivity ratio>
30.7

$$$$
>  <MOL>
CC(=O)C[C@H]1O[C@@H](On2cc(CN3C(=O)/C(=N\Nc4ccc(F)cc4)c4ccccc43)nn2)[C@H](OC(C)=O)[C@@H](OC(C)=O)[C@H]1OC(C)=O

>  <selectivity ratio>
32.2

$$$$

Proceed to the following item.
Sure, the documented selectivity ratio for N#Cc1ccc(N/N=C2\C(=O)N(Cc3cn(O[C@@H]4O[C@H](CO)[C@H](O)[C@H](O)[C@H]4O)nn3)c3ccccc32)cc1 is 12.2

---

assay: Selectivity index, ratio of CC50 for African green monkey Vero cells to IC50 for chloroquine-sensitive Plasmodium falciparum 3D7 infected in human erythrocytes; format: toxicity, cell-based; conditions: read-out: Ratio CC50/IC50
# note: boundary value 30 maps to condition not met; selectivity ratio below it maps to condition met

Examples with answers:
>  <MOL>
COc1ccc(N/N=C2\C(=O)N(Cc3cn(O[C@@H]4O[C@H](CO)[C@H](O)[C@H](O)[C@H]4O)nn3)c3ccccc32)cc1

>  <ASSIGNED CATEGORY>
condition met

$$$$
>  <MOL>
COc1ccc(N/N=C2\C(=O)N(Cc3cn(O[C@@H]4O[C@H](CO)[C@@H](O)[C@H](O)[C@H]4O)nn3)c3ccccc32)cc1

>  <ASSIGNED CATEGORY>
condition met

$$$$
>  <MOL>
CC1(C)O[C@H]2O[C@H](Cn3cc(CN4C(=O)/C(=N\Nc5ccc(F)cc5)c5ccccc54)nn3)[C@H](O)[C@H]2O1

>  <ASSIGNED CATEGORY>
condition met

$$$$

Hello, is selectivity ratio of the following compound strictly smaller than 30? CC(=O)C[C@H]1O[C@@H](On2cc(CN3C(=O)/C(=N\Nc4ccc(C#N)cc4)c4ccccc43)nn2)[C@H](OC(C)=O)[C@@H](OC(C)=O)[C@H]1OC(C)=O condition met

Hello, is selectivity ratio of the following compound strictly smaller than 30? CC1(C)O[C@H]2[C@@H](O1)[C@@H](Cn1cc(CN3C(=O)/C(=N\Nc4ccccc4)c4ccccc43)nn1)O[C@@H]1OC(C)(C)O[C@@H]12 condition met

Hello, is selectivity ratio of the following compound strictly smaller than 30? CC1(C)O[C@H]2O[C@H](Cn3cc(CN4C(=O)/C(=N\Nc5ccc(Br)cc5)c5ccccc54)nn3)[C@H](O)[C@H]2O1 condition met

Hello, is selectivity ratio of the following compound strictly smaller than 30? CC1(C)O[C@H]2O[C@H](Cn3cc(CN4C(=O)C(=O)c5ccccc54)nn3)[C@H](O)[C@H]2O1 condition not met

Hello, is selectivity ratio of the following compound strictly smaller than 30? O=C1/C(=N\Nc2cccc(Cl)c2)c2ccccc2N1Cc1cn(O[C@@H]2O[C@H](CO)[C@H](O)[C@H](O)[C@H]2O)nn1 condition met

Hello, is selectivity ratio of the following compound strictly smaller than 30? COc1ccc(N/N=C2\C(=O)N(Cc3cn(O[C@@H]4O[C@H](CC(C)=O)[C@H](OC(C)=O)[C@H](OC(C)=O)[C@H]4OC(C)=O)nn3)c3ccccc32)cc1 condition not met

Hello, is selectivity ratio of the following compound strictly smaller than 30? CC1(C)O[C@H]2[C@@H](O1)[C@@H](Cn1cc(CN3C(=O)/C(=N\Nc4ccc(F)cc4)c4ccccc43)nn1)O[C@@H]1OC(C)(C)O[C@@H]12 condition not met
